test system: DeltatarO mutant; assay: S. aureus survival, RN4220 and DeltatarO strains – OD600, teichoic acid synthesis inhibitors, primary screen (AID 463173); settings: S. aureus RN4220 wild type/DeltatarO growth, OD600, 18 h, active compounds read low, screened at 18.75 µg/mL (by protocol)
Screen size: about 52,000 compounds; about 4,300 (8.3%) were called active. Many of the other results were omitted from the sample, so actives are more common in it than they were.
I'd appreciate it if you marked entries 1 (yes) when survival is lower than 80% and 0 (no) when it is not.

// known answers, use as guide
CCCN1CCN(C(=O)Cn2c(-c3cccs3)cc3ccccc32)CC1 = 0 (no)
CN(C)c1ccc(CNC(=O)c2cccc(NC(=O)N3CCSc4ncccc43)c2)cc1 = 0 (no)

Prompt: State whether 80% exceeds survival recorded for `Cc1ccc(CCNC(=O)c2ccc(CSCc3ccccc3Cl)o2)cc1` .
Completion: 0 (no)

Prompt: And for `COc1cccc(CNC(=O)c2cc3c(-c4ccccc4F)nn(C)c3s2)c1` ?
Completion: 1 (yes)

Prompt: And for `Cn1nc(-c2ccccc2F)c2cc(C(=O)NCc3ccc(Cl)cc3)sc21` ?
Completion: 0 (no)

Prompt: And for `Cc1ccc(CCNC(=O)c2ccc(CSCc3ccccc3C)o2)cc1` ?
Completion: 1 (yes)

Prompt: And for `Cn1nc(-c2ccccc2F)c2cc(C(=O)NCc3ccccc3Cl)sc21` ?
Completion: 1 (yes)

----------
test system: DeltatarO mutant; experiment: S. aureus survival, RN4220 and DeltatarO strains – OD600, teichoic acid synthesis inhibitors, primary screen (AID 463173); conditions: S. aureus RN4220 wild type/DeltatarO growth, OD600, 18 h, active compounds read low, screened at 18.75 µg/mL (by protocol)
The whole screen tested about 52,000 compounds, of which about 4,300 (8.3%) were called active. This is one part of a sample in which actives are shown more often than they occur.
I'd appreciate it if you marked entries 1 (yes) when survival is lower than 90% and 0 (no) when it is not.

// known answers, use as guide
N#CC(C#N)=Cc1ccc(-c2cccc(C(F)(F)F)c2)o1 = 0 (no)
CC(=O)c1ccc(NC(=O)c2nc3ccccc3n(C)c2=O)cc1 = 1 (yes)
Cc1cc(C(=O)OC(C)C)ccc1-c1ccc(C=C(C#N)C#N)o1 = 0 (no)

Moving on to the next molecule.
Prompt: State whether 90% exceeds survival recorded for `Cc1ccc2nc(/C(C#N)=C/c3ccc(-c4ccc(C(=O)OC(C)C)cc4)o3)[nH]c2c1` .
Completion: 1 (yes)

----------
tested on: DeltatarO mutant; assay: S. aureus survival, RN4220 and DeltatarO strains – OD600, teichoic acid synthesis inhibitors, primary screen (AID 463173); conditions: S. aureus RN4220 wild type/DeltatarO growth, OD600, 18 h, screened at 18.75 µg/mL (by protocol)
Screen size: about 52,000 compounds; about 4,300 (8.3%) were called active. Rule as the data show it: active = survival mostly below about 52% (no sharp cut-off); inactive = mostly above about 56%. The entries come from a sample that favours actives as a whole.
Tick one outcome: active, inactive

// known answers, use as guide
COc1ccccc1NC(=O)CSc1nc2ccccc2c(=O)n1CCC(=O)NC1CCCCC1 = inactive
CC(C)Oc1ccc(C(=O)N2CC(=O)Nc3ccc(F)cc3C2c2ccc(F)cc2)cc1 (stereo not given) = inactive
Cc1cc(C)c(NC(=O)CSc2nc3nccnc3c(=O)n2CCc2c[nH]c3ccccc23)c(C)c1 = inactive
OCc1nc2ccc(-c3ccc4nc(CO)[nH]c4c3)cc2[nH]1 = inactive
CCc1cccc(NC(=O)Cn2c(=O)n(CCC(=O)NCC3CCCO3)c(=O)c3cc(OC)c(OC)cc32)c1 (stereo not given) = inactive

Prompt: # lookup: test call for `O=C(COc1ccccc1F)Nc1c(C(=O)Nc2cccc(F)c2)oc2ccccc12`
Completion: inactive

Prompt: And for `Cn1c(SCC(=O)Nc2ccccc2F)nc2c([nH]c3ccccc32)c1=O` ?
Completion: inactive

Prompt: And for `O=C(CSc1nc2nccnc2c(=O)n1CCc1c[nH]c2ccccc12)Nc1ccccc1F` ?
Completion: active

Prompt: And for `Cc1ccc(NC(=O)CSc2nc3c([nH]c4ccccc43)c(=O)n2-c2ccccc2)c(C)c1` ?
Completion: inactive

Prompt: And for `O=C1Nc2ccccc2C1=Nc1ccc(Br)cc1` ?
Completion: inactive
